# TARGET OR SYSTEM: KCNQ 2/3 channels (Homo sapiens, UniProt O43525+O43526)
# Construct: expressed in transfected cells; host or cells: HEK293
# TEST PROTOCOL: KCNQ 2/3 channel activation, thallium flux FLIPR assay (BTC-AM dye)
# Format: cell-based
# CONDITIONS USED: HEK293, maximum response relative to the response of 10 μM retigabine (set at 100%); HEK293 KCNQ2/KCNQ3 cells; read-out: % MAX
METRIC NAME: Emax (%)

Use these answered entries as a reference point.
O=C(Cc1cccc(Oc2ccccc2)c1)Nn1nc(N2CCOCC2)c2ccccc2c1=O : 17.1
O=C(Cc1ccccc1F)Nn1nc(N2CCOCC2)c2ccccc2c1=O : 18.7

1 = CN(Cc1ccccc1)c1nn(NC(=O)Cc2cc(F)cc(F)c2)c(=O)c2ccccc12
2 = O=C(Cc1cccc2ccccc12)Nn1nc(N2CCOCC2)c2ccccc2c1=O
3 = CC(C)(C)S(=O)(=O)c1nn(NC(=O)Cc2ccc(Cl)cc2)c(=O)c2ccccc12
4 = O=C(Cc1ccc(O)cc1)Nn1nc(N2CCOCC2)c2ccccc2c1=O
Problem: Arrange the 4 entries by Emax so the values rise. Reply format: the labels, ordered as requested.
Result: 2, 4, 3, 1
(2: 7.96%, 4: 39.9%, 3: 92.3%, 1: 147%)

----------
# TARGET OR SYSTEM: KCNQ 2/3 channels (Homo sapiens, UniProt O43525+O43526)
# Construct: expressed in transfected cells; host or cells: HEK293
# TEST PROTOCOL: KCNQ 2/3 channel activation, thallium flux FLIPR assay (BTC-AM dye)
# Assay type: cell-based
# CONDITIONS USED: HEK293, maximum response relative to the response of 10 μM retigabine (set at 100%); HEK293 KCNQ2/KCNQ3 cells; read-out: % MAX
METRIC NAME: Emax (%)

CC(C)(CC(=O)Nn1nc(-c2ccnc(Cl)c2)c2ccccc2c1=O)c1ccccc1 : 133
O=C(Cc1cc(F)ccc1F)Nn1nc(N2CCOCC2)c2ccccc2c1=O : 18
O=C(Cc1ccc(Cl)cc1)Nn1nc(Cc2ccc(Cl)nc2)c2ccccc2c1=O : 46.2
O=C(Cc1ccc2c(c1)OCO2)Nn1nc(N2CCOCC2)c2ccccc2c1=O : 18.7

1 = O=C(Cc1ccc(Cl)cc1)Nn1nc(N2CCSCC2)c2ccccc2c1=O
2 = COc1ccc(CC(=O)Nn2nc(N3CCOCC3)c3ccccc3c2=O)cc1OC
3 = O=C(Cc1ccc(Br)cc1)Nn1nc(S(=O)(=O)c2ccccc2)c2ccccc2c1=O
Problem: Arrange the 3 entries by Emax so the values rise. Reply format: the labels, ordered as requested.
Result: 2, 3, 1
(2: 51.7%, 3: 99.3%, 1: 164%)

A = O=C(CC1CCCC1)Nn1nc(N2CCOCC2)c2ccccc2c1=O
B = CS(=O)(=O)NCc1nn(NC(=O)Cc2ccc(Cl)cc2)c(=O)c2ccccc12
Problem: Would you mind telling me which has the lower recorded Emax between A and B ? Refer to your chosen item by its label in the answer.
Result: B
(B: 26.5%, A: 135%)

----------
# TARGET OR SYSTEM: KCNQ 2/3 channels (Homo sapiens, UniProt O43525+O43526)
# TEST PROTOCOL: KCNQ 2/3 channel activation, thallium flux FLIPR assay (BTC-AM dye)
# CONDITIONS USED: HEK293 cells stably expressing human KCNQ2 and KCNQ3 subunits; thallium-induced fluorescence, 4 min compound incubation
pEC50: −log10 of the molar value.
METRIC NAME: pEC50

Use these answered entries as a reference point.
O=C(Cc1cc(F)cc(F)c1)Nn1nc(S(=O)(=O)c2ccc(Br)cc2)c2ccccc2c1=O [Example 202] : 7.19
O=C(CC1CC2CCC1C2)Nn1nc(C2CCOCC2)c2ccccc2c1=O (racemic) [Example 28] : 6.35
O=C(Cc1ccc(Cl)cc1)Nn1nc(Sc2ccncc2)c2ccccc2c1=O [Example 191] : 5.88
O=C(CC1CC2CCC1C2)Nn1nc(SCc2ccccc2)c2ccccc2c1=O (racemic) [Example 214] : 7.66
O=C(CC1CC2CCC1C2)Nn1nc(N2CCS(=O)(=O)CC2)c2ccccc2c1=O (racemic) [Example 190] : 4.97
O=C(Cc1cc(F)cc(F)c1)Nn1nc(N2CCCCC2)c2ccccc2c1=O [Example 22] : 7.06
O=C(CC1CC2CCC1C2)Nn1nc(NCc2ccccc2)c2ccccc2c1=O (racemic) [Example 34] : 6.85
O=C(Cc1ccc(Cl)cc1)Nn1nc(-c2ccnc(C(F)(F)F)c2)c2ccccc2c1=O [Example 77] : 6.34

1 = CC(C)(CC(=O)Nn1nc(-c2ccc(Cl)nc2)c2ccccc2c1=O)c1ccccc1 [Example 27]
2 = O=C(CC1CC2CCC1C2)Nn1nc(Cc2ccc(Cl)nc2)c2ccccc2c1=O (racemic) [Example 30]
Problem: Please state the entry with greater pEC50 among 1 and 2 . Refer to your chosen item by its label in the answer.
Result: 2
(2: 7.23, 1: 6.58)

I = O=C(Cc1cc(F)cc(F)c1)Nn1nc(N2CCOCC2)c2ccccc2c1=O [Example 1]
II = Cc1ccc(S(=O)(=O)c2nn(NC(=O)Cc3ccc(Cl)cc3)c(=O)c3ccccc23)cc1 [Example 192]
III = O=C(Cc1cc(F)cc(F)c1)Nn1nc(N2CCSCC2)c2ccccc2c1=O [Example 92]
IV = CCC(C)(C)OC(=O)NCc1nn(NC(=O)Cc2ccc(Cl)cc2)c(=O)c2ccccc12 [Example 182]
Problem: Arrange the 4 entries by pEC50 so the values rise. Reply format: the labels, ordered as requested.
Result: I, IV, III, II

A = O=C(CC1CC2CCC1C2)Nn1nc(C(O)c2ccccc2)c2ccccc2c1=O (racemic) [Example 102]
B = O=C(CC1CCCCC1)Nn1nc(N2CCOCC2)c2ccccc2c1=O [Example 138]
Problem: Please state the entry with greater pEC50 among A and B . Refer to your chosen item by its label in the answer.
Result: A
(A: 6.05, B: 5.41)
